Cited source for all entries: patent US9249131B2

Task for the reader: assign each of the following compounds its reported pEC50.
System Name: ΔF508-CFTR (Homo sapiens, UniProt P13569, DEL508-508)
Construct: Fisher rat epithelial (FRT) cells for Ussing chamber follow-up
Sequence (P13569 with tags, fused parts or gaps DEL508-508): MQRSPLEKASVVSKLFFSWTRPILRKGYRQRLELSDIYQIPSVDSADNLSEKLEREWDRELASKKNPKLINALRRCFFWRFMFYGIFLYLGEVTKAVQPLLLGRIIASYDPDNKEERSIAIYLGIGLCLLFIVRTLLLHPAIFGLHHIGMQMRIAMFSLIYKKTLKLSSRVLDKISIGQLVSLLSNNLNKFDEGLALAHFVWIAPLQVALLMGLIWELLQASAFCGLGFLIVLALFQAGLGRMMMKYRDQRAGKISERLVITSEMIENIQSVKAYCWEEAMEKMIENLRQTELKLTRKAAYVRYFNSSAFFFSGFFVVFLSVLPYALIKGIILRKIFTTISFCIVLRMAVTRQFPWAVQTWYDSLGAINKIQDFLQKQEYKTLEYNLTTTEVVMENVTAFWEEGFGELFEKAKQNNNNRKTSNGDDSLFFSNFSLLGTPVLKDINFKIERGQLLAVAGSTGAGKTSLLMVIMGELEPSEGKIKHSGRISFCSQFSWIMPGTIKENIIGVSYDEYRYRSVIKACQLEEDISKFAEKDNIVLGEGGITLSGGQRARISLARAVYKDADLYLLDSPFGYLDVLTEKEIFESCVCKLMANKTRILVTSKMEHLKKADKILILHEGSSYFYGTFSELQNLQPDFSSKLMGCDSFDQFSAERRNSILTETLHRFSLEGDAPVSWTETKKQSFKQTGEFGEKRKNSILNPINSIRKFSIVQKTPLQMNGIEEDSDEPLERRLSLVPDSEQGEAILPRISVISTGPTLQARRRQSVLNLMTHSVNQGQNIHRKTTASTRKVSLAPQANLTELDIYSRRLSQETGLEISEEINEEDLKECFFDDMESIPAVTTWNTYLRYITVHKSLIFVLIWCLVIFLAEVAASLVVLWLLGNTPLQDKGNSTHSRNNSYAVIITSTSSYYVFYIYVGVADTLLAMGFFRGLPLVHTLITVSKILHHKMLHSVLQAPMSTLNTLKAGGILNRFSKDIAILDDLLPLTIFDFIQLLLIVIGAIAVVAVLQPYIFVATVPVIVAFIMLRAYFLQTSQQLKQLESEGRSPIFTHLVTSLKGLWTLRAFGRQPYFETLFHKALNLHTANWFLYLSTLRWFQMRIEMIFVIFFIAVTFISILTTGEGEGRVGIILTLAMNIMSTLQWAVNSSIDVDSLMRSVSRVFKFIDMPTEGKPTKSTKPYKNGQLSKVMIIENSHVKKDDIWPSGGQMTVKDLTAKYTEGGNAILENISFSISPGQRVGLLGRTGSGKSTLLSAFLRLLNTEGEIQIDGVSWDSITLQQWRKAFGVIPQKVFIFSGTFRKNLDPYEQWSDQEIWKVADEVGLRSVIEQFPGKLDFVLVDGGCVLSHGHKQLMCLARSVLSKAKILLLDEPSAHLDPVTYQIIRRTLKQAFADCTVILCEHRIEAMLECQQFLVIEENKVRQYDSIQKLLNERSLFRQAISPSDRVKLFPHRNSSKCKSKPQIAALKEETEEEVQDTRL
Protocol Description: Assays for ΔF508-CFTR correction and potentiator properties (membrane potential optical and electrophysiological methods)
Assay Context: CFTR modulation, tested using the above methods
pEC50: −log10 of the molar value.

Which value of pEC50 has been reported for CCOc1ccc2nc(NC(=O)C(CC)c3ccccc3)sc2c1 (stereo not shown) in the records?
> 5.00

Consider next the compound CCCC(=O)Nc1ncc(Cc2ccccc2Cl)s1 in the same way.
4.60 to 5.00

Consider next the compound O=C(Nc1ncc(Cc2ccc(Cl)cc2)s1)C(c1ccccc1)c1ccccc1 in the same way.
> 5.00

Consider next the compound CC(C)CC(=O)Nc1nc(-c2ccccc2)cs1 in the same way.
4.60 to 5.00

Consider next the compound Cc1csc(NC(=O)C(c2ccccc2)c2ccccc2)n1 in the same way.
4.22 to 4.60

Consider next the compound COc1ccccc1C(=O)Nc1nc(-c2ccccc2OC)cs1 in the same way.
4.60 to 5.00

Consider next the compound CC(C(=O)Nc1ncc(Cc2ccccc2C#N)s1)c1ccccc1 (stereo not shown) in the same way.
4.22 to 4.60

Consider next the compound O=C(Nc1ncc(Cc2ccccc2Cl)o1)C(c1ccc(Cl)cc1)c1ccc(Cl)cc1 in the same way.
4.60 to 5.00

Consider next the compound Cc1ccc(C(=O)Nc2nc(-c3ccccc3)c(C)s2)cc1 in the same way.
4.60 to 5.00

Consider next the compound CC(C(=O)Nc1nc(-c2ccccc2)c(-c2ccccc2)s1)N1CCN(S(=O)(=O)c2ccc(Cl)cc2)CC1 (stereo not shown) in the same way.
> 5.00

Consider next the compound CC(C)C(C(=O)Nc1ncc(Cc2ccccc2Cl)s1)c1ccccc1 (stereo not shown) in the same way.
> 5.00

Consider next the compound CCC(C(=O)Nc1ncc(Cc2ccc(Cl)cc2)s1)c1ccccc1 (stereo not shown) in the same way.
> 5.00

Consider next the compound CC1CCN(C(C(=O)Nc2ncc(Cc3ccccc3Cl)s2)c2ccccc2)CC1 (stereo not shown) in the same way.
> 5.00

Consider next the compound O=C(Nc1ncc(Cc2ccc(Cl)cc2)o1)C(c1ccccc1)C1CCCCC1 (stereo not shown) in the same way.
> 5.00

Consider next the compound O=C(Nc1ncc(Cc2ccc(Cl)cc2)s1)C(c1ccccc1)C1CCCC1 (stereo not shown) in the same way.
> 5.00

Consider next the compound CCC(C(=O)Nc1ncc(Cc2ccccc2Cl)s1)N(C)C (stereo not shown) in the same way.
4.22 to 4.60

Consider next the compound O=C(Nc1nc(-c2ccccc2)c(-c2ccccc2)s1)C1CCCCC1 in the same way.
> 5.00

Consider next the compound CCC(C(=O)Nc1ncc(Cc2ccccc2OC)o1)c1ccccc1 (stereo not shown) in the same way.
4.22 to 4.60

Consider next the compound CCC(C(=O)Nc1nc(-c2ccncc2)cs1)c1ccccc1 (stereo not shown) in the same way.
4.60 to 5.00

====

Task for the reader: assign each of the following molecules its reported EC50.
System Name: ΔF508-CFTR (Homo sapiens, UniProt P13569, DEL508-508)
Construct: Fisher rat epithelial (FRT) cells for Ussing chamber follow-up
Protocol Description: Assays for ΔF508-CFTR correction and potentiator properties (membrane potential optical and electrophysiological methods)
Assay Context: CFTR modulation, tested using the above methods

Which value of EC50 has been reported for O=C(Nc1nc(-c2ccccc2)cs1)C12CC3CC(CC(C3)C1)C2 [compound 17] in the records?
< 10 µM

Consider next the molecule O=C(Nc1nc(-c2ccccc2)cs1)c1cccc(Cl)c1 [compound 53] in the same way.
< 10 µM

Consider next the molecule CCCC(=O)Nc1nc(-c2ccccc2)c(-c2ccccc2)s1 [compound 108] in the same way.
< 10 µM

Consider next the molecule Cc1ccc(C(=O)Nc2nc(C)c(C)s2)cc1 [compound 66] in the same way.
10 to 25 µM

Consider next the molecule CC(C)(C)C(=O)Nc1nc(-c2ccccc2)cs1 [compound 87] in the same way.
10 to 25 µM

Consider next the molecule Cc1ccc(-c2csc(NC(=O)c3ccccc3)n2)cc1 [compound 48] in the same way.
< 10 µM

Consider next the molecule CNC(C(=O)Nc1ncc(Cc2ccccc2Cl)s1)c1ccccc1 (centres unmarked) [compound 217] in the same way.
25 to 60 µM

Consider next the molecule O=C(Nc1nc(-c2ccccc2)c(-c2ccccc2)s1)c1ccccc1Cl [compound 104] in the same way.
< 10 µM

Consider next the molecule COc1ccccc1C(=O)Nc1nc(-c2ccccc2)cs1 [compound 76] in the same way.
10 to 25 µM

Consider next the molecule CCC(C(=O)Nc1ncc(Cc2ccc(OC)cc2)s1)c1ccccc1 (centres unmarked) [compound 286] in the same way.
< 10 µM

Consider next the molecule CCC(C(=O)Nc1nc2cccc(C)c2s1)c1ccccc1 (centres unmarked) [compound 268] in the same way.
< 10 µM

Consider next the molecule CCC(C(=O)Nc1ncc(Cc2cccc(OC)c2)s1)c1ccccc1 (centres unmarked) [compound 284] in the same way.
< 10 µM

Consider next the molecule CCC(C(=O)Nc1ncc(Cc2cccc(Cl)c2)o1)c1ccccc1 (centres unmarked) [compound 154] in the same way.
< 10 µM

Consider next the molecule CCC(C(=O)Nc1ncc(Cc2cccnc2OC)s1)c1ccccc1 (centres unmarked) [compound 283] in the same way.
< 10 µM

Consider next the molecule O=C(Nc1ncc(Cc2ccccc2Cl)s1)C(c1ccccc1)n1cccn1 (centres unmarked) [compound 235] in the same way.
< 10 µM

Consider next the molecule O=C(Nc1ncc(Cc2ccccc2)s1)C1c2ccccc2-c2ccccc21 [compound 93] in the same way.
< 10 µM

Consider next the molecule O=C(O)c1ccccc1C(=O)Nc1nc(-c2ccccc2)c(-c2ccccc2)s1 [compound 59] in the same way.
10 to 25 µM

====

System Name: ΔF508-CFTR (Homo sapiens, UniProt P13569, DEL508-508)
Construct: Fisher rat epithelial (FRT) cells for Ussing chamber follow-up
Protocol Description: Assays for ΔF508-CFTR correction and potentiator properties (membrane potential optical and electrophysiological methods)
Assay Context: CFTR modulation, tested using the above methods
pEC50: −log10 of the molar value.
Task for the reader: assign each of the following compounds its reported pEC50.

Which value of pEC50 has been reported for CCC(C(=O)Nc1nc2c(s1)C(=O)CCC2)c1ccccc1 (centres unmarked) in the records?
4.22 to 4.60

Consider next the compound CCCc1ccc(C(=O)Nc2nc3ccccc3s2)cc1 in the same way.
4.60 to 5.00

Consider next the compound O=C(Nc1ncc(Cc2ccc(Cl)cc2)o1)c1ccccc1 in the same way.
4.60 to 5.00

Consider next the compound O=C(Nc1ncc(Cc2ccccc2Cl)s1)C(c1ccccc1)N1CCCC1 (centres unmarked) in the same way.
> 5.00

Consider next the compound CC(C)CC(=O)Nc1ncc(Cc2ccccc2Cl)s1 in the same way.
> 5.00

====

System Name: ΔF508-CFTR (Homo sapiens, UniProt P13569, DEL508-508)
Construct: Fisher rat epithelial (FRT) cells for Ussing chamber follow-up
Protocol Description: Assays for ΔF508-CFTR correction and potentiator properties (membrane potential optical and electrophysiological methods)
Assay Context: CFTR modulation, tested using the above methods
pEC50: −log10 of the molar value.
Task for the reader: assign each of the following compounds its reported pEC50.

Entry O=C(Nc1ncc(Cc2ccccc2Cl)s1)C(c1ccccc1)C1CCCC1 (stereo not shown) , system ΔF508-CFTR (Homo sapiens, UniProt P13569, DEL508-508): what pEC50 was measured?
> 5.00

Consider next the compound COc1ccccc1Cc1cnc(NC(=O)C(C)c2ccccc2)o1 (stereo not shown) in the same way.
4.22 to 4.60

Consider next the compound O=C(Nc1ncc(Cc2ccccc2Cl)s1)c1ccccc1 in the same way.
4.60 to 5.00

Consider next the compound CCC(C(=O)Nc1ncc(Cc2ccccc2Cl)s1)c1ccc(OC)cc1 (stereo not shown) in the same way.
> 5.00

Consider next the compound O=C(Nc1nc(-c2ccc3c(c2)OCO3)cs1)c1ccccc1 in the same way.
4.60 to 5.00

Consider next the compound N#Cc1ccccc1Cc1cnc(NC(=O)C(c2ccccc2)C2CCCC2)s1 (stereo not shown) in the same way.
> 5.00

Consider next the compound O=C(CN1CCCCC1)Nc1ncc(Cc2cccc3ccccc23)s1 in the same way.
4.60 to 5.00

Consider next the compound O=C(Nc1ncc(Cc2cccc(Cl)c2)o1)C1Cc2ccccc21 (stereo not shown) in the same way.
4.60 to 5.00

Consider next the compound CC(C)(C)C(=O)Nc1nc(-c2ccccc2)c(-c2ccccc2)s1 in the same way.
> 5.00

Consider next the compound CCC(C(=O)Nc1ncc(Cc2ccccc2Cl)s1)c1ccccc1 (stereo not shown) in the same way.
> 5.00

Consider next the compound O=C(Nc1nc(-c2ccccc2)c(-c2ccccc2)s1)c1ccc(Cl)c(Cl)c1 in the same way.
4.60 to 5.00

Consider next the compound Cc1ccccc1C(=O)Nc1nc2c(C)cccc2s1 in the same way.
> 5.00

Consider next the compound COc1ccc(C(=O)Nc2nc(-c3cccc(OC)c3)cs2)cc1 in the same way.
4.60 to 5.00

Consider next the compound CCNC(C(=O)Nc1ncc(Cc2ccccc2Cl)s1)c1ccccc1 (stereo not shown) in the same way.
4.60 to 5.00

Consider next the compound O=C(Nc1ncc(Cc2cccc(Cl)c2Cl)s1)C1CC1 in the same way.
4.60 to 5.00

Consider next the compound O=C(Nc1ncc(Cc2ccccc2)s1)C(c1ccccc1)C1CCCCC1 (stereo not shown) in the same way.
> 5.00
